Recorded values, source ChEMBL document CHEMBL4622910.

- assay.explanation: Solubility of the compound in water
- Type: physicochemical
Please go through the items and note down their solubility.
Numbers only, in µg/mL.

Please review the following examples before continuing.
> print(dat)
                            chemical.smiles  quantity.kind  unit.label  endpoint.result
1  C[C@@H](Nc1nc2c(cnn2C2CCCC2)c(=O)[nH]1)C(=O)Nc1ccncc1     solubility       µg/mL               20
2  C[C@@H](Nc1nc2c(cnn2C2CCCC2)c(=O)[nH]1)C(=O)Nc1cnc(Cl)nc1     solubility       µg/mL              0.5
3  C[C@@H](Nc1nc2c(cnn2C2CCCC2)c(=O)[nH]1)C(=O)Nc1ccc2c(c1)CNC2=O     solubility       µg/mL              0.1
4  C[C@@H](Nc1nc2c(cnn2C2CCCC2)c(=O)[nH]1)C(=O)Nc1ccc2c(c1)COC2     solubility       µg/mL             0.03
5  C[C@@H](Nc1nc2c(cnn2C2CCCC2)c(=O)[nH]1)C(=O)Nc1ccc2[nH]cnc2c1     solubility       µg/mL              195

Please supply solubility for each of the following items, keeping them in order.
1. C[C@@H](Nc1nc2c(cnn2C2CCCC2)c(=O)[nH]1)C(=O)Nc1ccc2nccn2c1
2. C[C@@H](Nc1nc2c(cnn2C2CCCC2)c(=O)[nH]1)C(=O)Nc1ccc2c(c1)CCC2=O
3. C[C@@H](Nc1nc2c(cnn2C2CCCC2)c(=O)[nH]1)C(=O)Nc1ccc(C(F)(F)F)cn1

1: 74; 2: 6; 3: 6.3

Please supply solubility for each of the following items, keeping them in order.
1. C[C@@H](Nc1nc2c(cnn2C2CCCC2)c(=O)[nH]1)C(=O)Nc1ccc(F)nc1
2. C[C@@H](Nc1nc2c(cnn2C2CCCC2)c(=O)[nH]1)C(=O)Nc1ccc(C(F)(F)F)nc1
3. C[C@@H](Nc1nc2c(cnn2C2CCCC2)c(=O)[nH]1)C(=O)Nc1ccc2[nH]ncc2c1
4. C[C@@H](Nc1nc2c(cnn2C2CCCC2)c(=O)[nH]1)C(=O)Nc1ccc2[nH]ccc2c1
5. C[C@@H](Nc1nc2c(cnn2C2CCCC2)c(=O)[nH]1)C(=O)NC1=NCCS1
6. COc1ccc(NC(=O)[C@@H](C)Nc2nc3c(cnn3C3CCCC3)c(=O)[nH]2)cc1
7. C[C@@H](Nc1nc2c(cnn2C2CCCC2)c(=O)[nH]1)C(=O)Nc1nccs1

52
5.1
103
0.1
0.03
0.04
25

###

- assay.explanation: Hepatic clearance in rat liver microsomes
- Type: ADME, Microsome
Please go through the items and note down their CLH.
// return the numeric value with its unit appended

Please review the following examples before continuing.
> print(dat)
                            chemical.smiles  quantity.kind  endpoint.result
1  COc1ccc(NC(=O)[C@@H](C)Nc2nc3c(cnn3C3CCCC3)c(=O)[nH]2)cc1            CLH   65.8 mL/min/kg
2  C[C@@H](Nc1nc2c(cnn2C2CCCC2)c(=O)[nH]1)C(=O)Nc1ccc2nccn2c1            CLH   11.8 mL/min/kg
3  C[C@@H](Nc1nc2c(cnn2C2CCCC2)c(=O)[nH]1)C(=O)Nc1ccc(F)nc1            CLH   11.8 mL/min/kg
4  C[C@@H](Nc1nc2c(cnn2C2CCCC2)c(=O)[nH]1)C(=O)Nc1ccc2[nH]ncc2c1            CLH     10 mL/min/kg

Here's the next entry for you.
For the molecule C[C@@H](Nc1nc2c(cnn2C2CCCC2)c(=O)[nH]1)C(=O)Nc1ccc2[nH]cnc2c1 , give its reported CLH.
9.07 mL/min/kg
